- target_or_system: EGFR (Homo sapiens)
- Construct: Add 7 ug A431 cell lysate per well (EGFR source); endogenous in cells; host or cells: A431
- Sequence (P00533 25-1210): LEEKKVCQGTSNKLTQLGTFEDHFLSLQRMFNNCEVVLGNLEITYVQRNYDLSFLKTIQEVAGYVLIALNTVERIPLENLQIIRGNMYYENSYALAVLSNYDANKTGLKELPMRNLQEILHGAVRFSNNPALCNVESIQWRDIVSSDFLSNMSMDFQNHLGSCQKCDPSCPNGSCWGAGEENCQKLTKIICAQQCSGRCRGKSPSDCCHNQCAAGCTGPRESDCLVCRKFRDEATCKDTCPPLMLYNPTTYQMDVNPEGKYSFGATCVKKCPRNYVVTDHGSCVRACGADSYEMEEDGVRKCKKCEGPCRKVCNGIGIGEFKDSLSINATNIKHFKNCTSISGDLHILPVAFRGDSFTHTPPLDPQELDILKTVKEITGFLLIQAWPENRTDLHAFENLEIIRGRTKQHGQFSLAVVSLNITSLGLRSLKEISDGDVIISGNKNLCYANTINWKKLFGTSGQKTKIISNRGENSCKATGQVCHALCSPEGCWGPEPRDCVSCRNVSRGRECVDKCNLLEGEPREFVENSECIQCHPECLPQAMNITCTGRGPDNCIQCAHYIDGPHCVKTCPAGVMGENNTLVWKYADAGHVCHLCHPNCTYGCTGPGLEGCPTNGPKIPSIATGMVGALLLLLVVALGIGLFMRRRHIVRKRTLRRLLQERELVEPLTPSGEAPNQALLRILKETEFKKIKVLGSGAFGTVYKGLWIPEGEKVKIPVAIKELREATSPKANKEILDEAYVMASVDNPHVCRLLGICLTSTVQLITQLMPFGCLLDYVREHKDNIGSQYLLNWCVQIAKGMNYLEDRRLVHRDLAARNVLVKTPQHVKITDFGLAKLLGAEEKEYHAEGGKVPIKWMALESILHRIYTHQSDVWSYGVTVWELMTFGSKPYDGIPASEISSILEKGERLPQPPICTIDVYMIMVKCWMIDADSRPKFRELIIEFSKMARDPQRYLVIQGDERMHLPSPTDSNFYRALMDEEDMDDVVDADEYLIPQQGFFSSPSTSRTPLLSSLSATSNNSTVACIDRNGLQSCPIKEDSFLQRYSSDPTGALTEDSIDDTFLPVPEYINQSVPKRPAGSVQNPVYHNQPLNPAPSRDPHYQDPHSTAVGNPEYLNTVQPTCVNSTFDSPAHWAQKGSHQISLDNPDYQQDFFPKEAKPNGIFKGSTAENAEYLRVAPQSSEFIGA
- method_summary: EGFR ELISA assay (in vitro kinase activity, EGFR captured from A431 cell lysate)
- Format: biochemical
- Parameters: concentration or dose not given beside the values
quantity_measured: Biochem EGFR %Inhibition (%)
Report as a plain number; the unit % is understood.

Ask | Recorded Biochem EGFR %Inhibition of CCN(CC)c1ccc(C=C2C(=O)Nc3ccc(S(=O)(=O)Nc4ccc(C(F)(F)F)cc4)cc32)cc1 , please.
Reply | 22.4

Ask | Recorded Biochem EGFR %Inhibition of O=C1Nc2ccc(S(=O)(=O)N3CCOCC3)cc2C1=Cc1c[nH]c(=O)[nH]c1=O , please.
Reply | 7.1

Ask | Recorded Biochem EGFR %Inhibition of CCOC(=O)c1c(C)[nH]c(C=C2C(=O)Nc3ccc(S(=O)(=O)NC)cc32)c1C , please.
Reply | 14.4

Ask | Recorded Biochem EGFR %Inhibition of CCn1c2ccccc2c2cc(C=C3C(=O)Nc4ccc(S(=O)(=O)N5CCOCC5)cc43)ccc21 , please.
Reply | 17.7

Ask | Recorded Biochem EGFR %Inhibition of COc1cccc(C=C2C(=O)Nc3ccc(CCCl)cc32)c1OC , please.
Reply | -3.5

Ask | Recorded Biochem EGFR %Inhibition of CNS(=O)(=O)c1ccc2c(c1)C(=Cc1cc(C(C)(C)C)c(OCc3ccccc3)c(C(C)(C)C)c1)C(=O)N2 , please.
Reply | 10.6

Ask | Recorded Biochem EGFR %Inhibition of Cc1c(Br)ccc2c1C(=Cc1cccn1C)C(=O)N2 , please.
Reply | 14.4

Ask | Recorded Biochem EGFR %Inhibition of CC(C)(C)c1cc(C=C2C(=O)Nc3ccc(I)cc32)cc(C(C)(C)C)c1OCc1ccccc1 , please.
Reply | 26.7

Ask | Recorded Biochem EGFR %Inhibition of CCOC(=O)c1[nH]c(C=C2C(=O)Nc3ccc(CCCl)cc32)c(C(=O)OC)c1C , please.
Reply | -17.2

Ask | Recorded Biochem EGFR %Inhibition of COC(=O)c1[nH]c(C)c(C=C2C(=O)Nc3ccc(I)cc32)c1C(=O)OC , please.
Reply | 9.9

Ask | Recorded Biochem EGFR %Inhibition of COc1cc(N(C)C)ccc1C=C1C(=O)Nc2ccc(S(=O)(=O)Nc3ccc(C(F)(F)F)cc3)cc21 , please.
Reply | 7.4

Ask | Recorded Biochem EGFR %Inhibition of COc1ccc(C=C2C(=O)Nc3ccc(I)cc32)c(O)c1 , please.
Reply | -12.0

Ask | Recorded Biochem EGFR %Inhibition of Cc1c(Br)ccc2c1C(=Cc1cc(C(F)(F)F)ccc1F)C(=O)N2 , please.
Reply | 17.5

Ask | Recorded Biochem EGFR %Inhibition of CN(C)c1ccc(C=C2C(=O)Nc3ccc(S(=O)(=O)Nc4ccc(C(F)(F)F)cc4)cc32)cc1 , please.
Reply | 36.8

Ask | Recorded Biochem EGFR %Inhibition of CNS(=O)(=O)c1ccc2c(c1)C(=Cc1cccc(OC)c1OC)C(=O)N2 , please.
Reply | -23.7

Ask | Recorded Biochem EGFR %Inhibition of CC(C)(C)c1cc(C=C2C(=O)Nc3ccc(CCCl)cc32)cc(Br)c1OCc1ccccc1 , please.
Reply | -20.4

Ask | Recorded Biochem EGFR %Inhibition of CCCCN(CCCC)c1ccc(C=C2C(=O)Nc3ccc(S(=O)(=O)Nc4ccc(C(F)(F)F)cc4)cc32)cc1 , please.
Reply | -13.3
